- System: lung cancer cell line (A-549)
- experimental.protocol: Preliminary cytotoxicity screening against lung cancer cell line A-549 (SRB assay)
- Format: cell-based, human
- condition.label: A-549; 50% reduction in absorbance at 562 nm, SRB assay; Table 2 (tromethamine salts X)
observed.property: ED50 (cytotoxicity against A-549) (µg/mL)

1. COc1ccc2[nH]c(-c3cccc(Cl)c3)c(C(=O)O)c(=O)c2c1.NC(CO)(CO)CO [Compound X-9]	17.6
2. NC(CO)(CO)CO.O=C(O)c1c(-c2cccc(F)c2)[nH]c2ccc(F)cc2c1=O [Compound X-2]	4.3
3. COc1ccc2[nH]c(-c3cccc(F)c3)c(C(=O)O)c(=O)c2c1.NC(CO)(CO)CO [Compound X-8]	2.4
4. NC(CO)(CO)CO.O=C(O)c1c(-c2cccc(F)c2)[nH]c2ccc(Cl)cc2c1=O [Compound X-5]	10.9
5. NC(CO)(CO)CO.O=C(O)c1c(-c2cccc(Cl)c2)[nH]c2ccc(F)cc2c1=O [Compound X-1]	17.6

====

Reported melting point is given for each of the following molecules.
observed.property: melting point

1. COc1cccc(-c2[nH]c3ccc(OC)cc3c(=O)c2C(=O)O)c1	> 300 °C
2. COc1ccc2c(c1)C(=O)C(C(=O)O)C(c1ccccc1)=N2 (stereo not drawn)	> 300 °C
3. O=C(O)C1C(=O)c2cc3c(cc2N=C1c1ccccc1)OCO3 (stereo not drawn)	267.5 to 269.2 °C (dec.)
4. COc1ccc2[nH]c(-c3cccc(F)c3)c(C(=O)O)c(=O)c2c1	268 °C (dec.)
5. O=C(O)C1C(=O)c2cc(Cl)ccc2N=C1c1ccccc1 (stereo not drawn)	254.2 to 255.6 °C (dec.)
6. COc1cccc(-c2[nH]c3ccc(Cl)cc3c(=O)c2C(=O)O)c1	243 °C (dec.)
7. O=C(O)c1c(-c2cccc(F)c2)[nH]c2ccc(F)cc2c1=O	272 °C (dec.)
8. COc1ccc2[nH]c(-c3cccc(Cl)c3)c(C(=O)O)c(=O)c2c1	223 °C (dec.)
9. O=C(O)C1C(=O)c2cc(F)ccc2N=C1c1ccccc1 (stereo not drawn)	297 °C
10. COc1cccc(-c2[nH]c3ccc(F)cc3c(=O)c2C(=O)O)c1	231 °C
11. O=C(O)c1c(-c2cccc(F)c2)[nH]c2ccc(Cl)cc2c1=O	> 300 °C
12. O=C(O)c1c(-c2cccc(Cl)c2)[nH]c2ccc(Cl)cc2c1=O	260 °C (dec.)
